Where do these numbers come from? They come from patent US11319298B2.

Target: UniProtKB P08173
Sequence (P08173 1-479): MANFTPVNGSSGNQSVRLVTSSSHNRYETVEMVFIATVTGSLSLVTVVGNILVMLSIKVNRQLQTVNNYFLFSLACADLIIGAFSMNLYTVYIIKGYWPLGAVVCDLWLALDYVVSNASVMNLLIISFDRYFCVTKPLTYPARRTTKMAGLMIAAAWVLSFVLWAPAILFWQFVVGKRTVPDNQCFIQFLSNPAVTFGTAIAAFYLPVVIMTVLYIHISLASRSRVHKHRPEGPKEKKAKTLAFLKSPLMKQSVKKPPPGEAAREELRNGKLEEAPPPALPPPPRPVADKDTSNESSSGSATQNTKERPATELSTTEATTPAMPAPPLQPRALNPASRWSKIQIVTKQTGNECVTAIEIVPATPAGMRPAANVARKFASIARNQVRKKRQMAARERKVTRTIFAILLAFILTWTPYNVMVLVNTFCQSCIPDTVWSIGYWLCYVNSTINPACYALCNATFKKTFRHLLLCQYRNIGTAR
Assay: human FLIPR-based M4 PAM assay, CHO-K1 cells stably transfected with human M4 receptor and chimeric G-protein Gαqi5
Settings: inflection point (IP) of dose response curve; acetylcholine added at 20% of maximum response; CHO-K1 human M4/Gαqi5, FLIPR Tetra
Description: In a typical experiment the M4 muscarinic acetylcholine receptor modulating activity of the compounds of the present invention was determined in accordance with the following experimental method. […] Following dye loading the cell plates are placed in a FLIPR Tetra instrument and while monitoring dye fluorescence (excitation […]), 10 uL of test substance at increasing concentrations is added, and fluorescence values are recorded for 4 min. […]
pEC50: −log10 of the molar value.
The label depends only on pEC50: Satisfied if it is at least 7, Not satisfied if it is smaller.

molecule	target	class
COc1ccc(OC2CCN(c3nc(C(=O)NC4CCc5cccnc5C4)nc(Cl)c3C)CC2)cn1 (centres unmarked) [Example 217]	UniProtKB P08173	Not satisfied
COc1ccc(OC2CCN(c3nc(OC)ncc3C#N)CC2)cc1 [Example 18]	UniProtKB P08173	Not satisfied
Cc1c(Cl)nc(CO)nc1N1CCC(Oc2cccc(S(C)(=O)=O)c2)CC1 [Example 42]	UniProtKB P08173	Not satisfied
Cc1cc(C(=O)NCc2ccncc2)nnc1N1CCC(Oc2ccccc2)CC1 [Example 114]	UniProtKB P08173	Satisfied
COc1ccc(OC2CCN(c3ncnc(N4C[C@H](F)[C@@H](F)C4)c3C)CC2)cn1 [Example 230]	UniProtKB P08173	Not satisfied
